- target_desc: Sodium channel protein type 5 subunit alpha (Homo sapiens, UniProt Q14524)
- Sequence (Q14524 whole entry): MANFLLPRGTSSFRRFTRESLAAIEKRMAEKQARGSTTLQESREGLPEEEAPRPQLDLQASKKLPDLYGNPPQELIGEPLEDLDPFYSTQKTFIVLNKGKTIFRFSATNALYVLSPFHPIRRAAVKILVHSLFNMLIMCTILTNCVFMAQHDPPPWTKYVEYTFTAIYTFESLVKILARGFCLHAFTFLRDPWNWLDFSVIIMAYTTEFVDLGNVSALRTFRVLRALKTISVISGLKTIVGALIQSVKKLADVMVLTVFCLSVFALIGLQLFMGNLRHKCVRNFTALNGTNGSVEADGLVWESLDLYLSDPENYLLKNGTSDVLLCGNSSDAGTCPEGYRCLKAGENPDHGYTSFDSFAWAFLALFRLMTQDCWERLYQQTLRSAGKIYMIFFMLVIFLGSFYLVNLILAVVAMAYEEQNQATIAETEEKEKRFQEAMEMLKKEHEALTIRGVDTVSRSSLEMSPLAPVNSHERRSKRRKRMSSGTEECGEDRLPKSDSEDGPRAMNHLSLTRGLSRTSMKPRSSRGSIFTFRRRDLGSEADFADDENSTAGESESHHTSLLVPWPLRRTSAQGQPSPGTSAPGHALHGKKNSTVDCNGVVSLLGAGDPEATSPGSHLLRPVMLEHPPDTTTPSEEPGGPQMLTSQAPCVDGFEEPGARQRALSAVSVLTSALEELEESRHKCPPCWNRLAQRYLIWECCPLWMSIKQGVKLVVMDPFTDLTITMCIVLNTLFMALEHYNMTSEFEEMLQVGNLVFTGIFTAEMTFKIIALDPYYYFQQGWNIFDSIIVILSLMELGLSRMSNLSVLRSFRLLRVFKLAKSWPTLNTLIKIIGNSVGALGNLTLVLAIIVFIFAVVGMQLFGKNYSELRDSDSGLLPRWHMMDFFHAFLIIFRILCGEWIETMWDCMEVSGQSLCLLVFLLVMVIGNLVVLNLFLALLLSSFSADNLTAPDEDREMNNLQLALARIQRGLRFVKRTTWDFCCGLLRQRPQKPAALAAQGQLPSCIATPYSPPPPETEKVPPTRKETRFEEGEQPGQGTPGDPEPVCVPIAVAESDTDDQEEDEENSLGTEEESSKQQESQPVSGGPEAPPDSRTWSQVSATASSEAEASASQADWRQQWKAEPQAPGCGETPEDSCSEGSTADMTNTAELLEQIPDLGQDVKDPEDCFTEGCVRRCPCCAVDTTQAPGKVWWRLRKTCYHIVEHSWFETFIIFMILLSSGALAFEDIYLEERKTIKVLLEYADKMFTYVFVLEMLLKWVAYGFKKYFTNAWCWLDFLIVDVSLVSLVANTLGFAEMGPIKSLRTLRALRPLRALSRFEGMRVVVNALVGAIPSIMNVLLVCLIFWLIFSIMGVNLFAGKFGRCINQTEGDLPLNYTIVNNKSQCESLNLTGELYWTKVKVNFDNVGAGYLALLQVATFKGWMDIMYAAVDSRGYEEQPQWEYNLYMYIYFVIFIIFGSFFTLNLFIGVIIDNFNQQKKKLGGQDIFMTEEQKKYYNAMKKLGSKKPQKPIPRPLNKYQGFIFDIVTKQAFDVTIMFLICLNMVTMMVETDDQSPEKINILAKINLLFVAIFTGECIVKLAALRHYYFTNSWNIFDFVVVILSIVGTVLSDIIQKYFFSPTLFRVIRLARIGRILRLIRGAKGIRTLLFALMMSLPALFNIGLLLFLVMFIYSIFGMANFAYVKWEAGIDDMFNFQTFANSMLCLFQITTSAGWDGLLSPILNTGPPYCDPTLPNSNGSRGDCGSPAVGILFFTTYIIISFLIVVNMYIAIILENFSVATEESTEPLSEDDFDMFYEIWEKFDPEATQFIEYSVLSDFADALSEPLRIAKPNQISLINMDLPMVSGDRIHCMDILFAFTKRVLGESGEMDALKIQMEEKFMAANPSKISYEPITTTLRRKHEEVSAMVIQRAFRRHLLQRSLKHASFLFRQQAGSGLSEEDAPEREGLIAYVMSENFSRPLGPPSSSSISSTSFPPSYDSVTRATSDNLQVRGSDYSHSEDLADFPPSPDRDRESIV
- test: Inhibition of human Nav 1.5 phasic ion channel expressed in HEK293 cells by whole-cell patch clamp technique
- Type: cell-based

>  <smiles_text>
COc1ccsc1CNCC[C@@]1(c2ccccn2)CCOC2(CCCC2)C1

>  <IC50, µM>
4.7

$$$$
>  <smiles_text>
c1ccc([C@]2(CCNCc3cccs3)CCOC3(CCCC3)C2)nc1

>  <IC50, µM>
9

$$$$

====

- target_desc: Sodium channel protein type 5 subunit alpha (Homo sapiens)
- test: Inhibition of human Nav 1.5 tonic ion channel expressed in HEK293 cells by whole-cell patch clamp technique
- Assay type: cell-based
pIC50: −log10 of the molar value.
Entries and their measured pIC50 follow.

>  <smiles_text>
c1ccc([C@]2(CCNCc3cccs3)CCOC3(CCCC3)C2)nc1

>  <pIC50>
4.70

$$$$
>  <smiles_text>
COc1ccsc1CNCC[C@@]1(c2ccccn2)CCOC2(CCCC2)C1

>  <pIC50>
4.78

$$$$

====

Entries and their measured pIC50 follow.
- target_desc: Voltage-dependent L-type calcium channel subunit alpha-1C (Homo sapiens, UniProt Q13936)
- Sequence (Q13936 whole entry): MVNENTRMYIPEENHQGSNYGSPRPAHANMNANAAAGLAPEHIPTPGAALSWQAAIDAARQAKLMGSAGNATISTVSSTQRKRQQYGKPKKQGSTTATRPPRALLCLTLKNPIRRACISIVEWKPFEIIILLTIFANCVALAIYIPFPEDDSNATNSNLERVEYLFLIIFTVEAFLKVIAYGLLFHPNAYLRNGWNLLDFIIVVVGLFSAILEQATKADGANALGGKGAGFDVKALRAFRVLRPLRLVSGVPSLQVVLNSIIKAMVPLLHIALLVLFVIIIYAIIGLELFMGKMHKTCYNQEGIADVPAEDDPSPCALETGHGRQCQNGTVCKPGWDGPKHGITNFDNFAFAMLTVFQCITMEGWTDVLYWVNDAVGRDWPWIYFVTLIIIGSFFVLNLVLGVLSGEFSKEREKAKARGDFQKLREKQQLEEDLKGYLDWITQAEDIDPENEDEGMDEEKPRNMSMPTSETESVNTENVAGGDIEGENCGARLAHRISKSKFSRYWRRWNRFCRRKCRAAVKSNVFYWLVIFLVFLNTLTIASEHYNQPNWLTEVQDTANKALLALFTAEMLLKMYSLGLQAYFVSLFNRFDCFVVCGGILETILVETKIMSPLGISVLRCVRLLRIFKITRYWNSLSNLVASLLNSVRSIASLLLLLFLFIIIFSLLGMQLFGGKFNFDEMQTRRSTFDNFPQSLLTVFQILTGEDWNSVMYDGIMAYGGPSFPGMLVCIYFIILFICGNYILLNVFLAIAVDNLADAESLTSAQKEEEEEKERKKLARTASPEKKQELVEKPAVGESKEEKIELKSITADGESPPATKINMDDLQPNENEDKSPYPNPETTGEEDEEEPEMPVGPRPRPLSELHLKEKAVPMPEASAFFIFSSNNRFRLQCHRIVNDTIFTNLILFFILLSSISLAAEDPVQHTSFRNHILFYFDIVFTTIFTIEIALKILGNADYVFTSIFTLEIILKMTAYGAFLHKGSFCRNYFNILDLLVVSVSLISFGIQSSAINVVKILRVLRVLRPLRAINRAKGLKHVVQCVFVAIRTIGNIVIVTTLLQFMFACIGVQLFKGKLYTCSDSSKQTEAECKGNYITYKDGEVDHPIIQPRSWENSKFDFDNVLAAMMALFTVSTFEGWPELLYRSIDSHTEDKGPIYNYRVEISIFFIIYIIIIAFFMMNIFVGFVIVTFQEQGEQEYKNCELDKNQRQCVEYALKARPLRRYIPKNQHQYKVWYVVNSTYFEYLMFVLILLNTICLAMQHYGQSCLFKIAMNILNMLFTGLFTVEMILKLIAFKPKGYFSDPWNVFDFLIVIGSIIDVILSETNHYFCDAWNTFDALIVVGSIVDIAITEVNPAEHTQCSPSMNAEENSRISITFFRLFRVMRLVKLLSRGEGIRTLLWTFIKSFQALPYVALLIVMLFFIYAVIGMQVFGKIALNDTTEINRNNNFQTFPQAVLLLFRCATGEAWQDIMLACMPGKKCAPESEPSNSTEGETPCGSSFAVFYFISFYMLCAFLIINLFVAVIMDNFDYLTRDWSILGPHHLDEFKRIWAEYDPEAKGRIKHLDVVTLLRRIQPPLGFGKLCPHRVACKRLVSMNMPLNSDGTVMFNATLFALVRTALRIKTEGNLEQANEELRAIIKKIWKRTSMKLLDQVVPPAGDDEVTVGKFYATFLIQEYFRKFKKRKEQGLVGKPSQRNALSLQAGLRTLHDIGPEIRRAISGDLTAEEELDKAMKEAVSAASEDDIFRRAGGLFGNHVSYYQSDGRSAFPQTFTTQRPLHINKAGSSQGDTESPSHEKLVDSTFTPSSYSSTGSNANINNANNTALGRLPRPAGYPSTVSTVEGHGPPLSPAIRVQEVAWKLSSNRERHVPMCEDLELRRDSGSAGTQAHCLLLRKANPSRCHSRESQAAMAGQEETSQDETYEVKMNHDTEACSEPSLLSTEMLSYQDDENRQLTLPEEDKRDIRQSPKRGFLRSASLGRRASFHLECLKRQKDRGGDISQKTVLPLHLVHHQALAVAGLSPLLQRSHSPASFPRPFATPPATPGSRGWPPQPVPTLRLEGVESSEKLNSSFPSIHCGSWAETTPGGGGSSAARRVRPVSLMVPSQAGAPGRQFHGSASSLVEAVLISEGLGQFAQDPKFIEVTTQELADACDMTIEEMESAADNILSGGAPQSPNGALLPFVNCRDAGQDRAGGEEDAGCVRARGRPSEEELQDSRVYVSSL
- test: Inhibition of human Cav 1.2 ion channel expressed in HEK293 cells by whole-cell patch clamp technique
pIC50: −log10 of the molar value.

>  <smiles_text>
COc1ccsc1CNCC[C@@]1(c2ccccn2)CCOC2(CCCC2)C1

>  <value_modifier>
=

>  <pIC50>
4.44

$$$$
>  <smiles_text>
c1ccc([C@]2(CCNCc3cccs3)CCOC3(CCCC3)C2)nc1

>  <value_modifier>
<

>  <pIC50>
4.00

$$$$

====

- target_desc: UniProtKB P35372
- Sequence (P35372 whole entry): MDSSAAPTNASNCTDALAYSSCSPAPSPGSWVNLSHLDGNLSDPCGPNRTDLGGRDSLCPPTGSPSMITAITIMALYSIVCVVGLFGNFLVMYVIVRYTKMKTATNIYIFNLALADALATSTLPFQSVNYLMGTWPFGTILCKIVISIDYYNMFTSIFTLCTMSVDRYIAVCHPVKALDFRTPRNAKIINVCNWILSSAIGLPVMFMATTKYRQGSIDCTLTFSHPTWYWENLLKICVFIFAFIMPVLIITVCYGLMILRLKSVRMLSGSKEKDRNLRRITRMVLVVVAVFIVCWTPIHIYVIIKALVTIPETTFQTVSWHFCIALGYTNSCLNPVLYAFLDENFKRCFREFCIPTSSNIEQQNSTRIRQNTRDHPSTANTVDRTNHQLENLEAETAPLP
- test: Agonist activity at human mu opioid receptor expressed in HEK293 cells assessed as inhibition of forskolin-stimulated cAMP accumulation by fluorescence assay
- Type: functional, cell-based
property_name: log10 EC50 (log10 of the value in nM)

>  <molecule>
Fc1ccc([C@]2(CCNCc3ccccc3)CCOC3(CCCC3)C2)cc1

>  <property_name>
log10 EC50

>  <value_observed>
1.50

$$$$
>  <molecule>
Fc1ccc(C2(CCNCc3ccccc3)CCOC3(CCCC3)C2)cc1 (racemic)

>  <property_name>
log10 EC50

>  <value_observed>
1.90

$$$$
>  <molecule>
c1ccc(CNCCC2(c3ccccn3)CCOC3(CCCC3)C2)cc1 (racemic)

>  <property_name>
log10 EC50

>  <value_observed>
1.70

$$$$
>  <molecule>
Clc1ccccc1CNCC[C@@]1(c2ccccn2)CCOC2(CCCC2)C1

>  <property_name>
log10 EC50

>  <value_observed>
1.00

$$$$
>  <molecule>
c1ccc(CNCC[C@]2(c3ccccn3)CCOC3(CCCC3)C2)cc1

>  <property_name>
log10 EC50

>  <value_observed>
2.80

$$$$
>  <molecule>
Cc1ccc(C2(CCNCc3ccccc3O)CCOCC2)cc1

>  <property_name>
log10 EC50

>  <value_observed>
4.00

$$$$

These measurements were taken from ChEMBL document CHEMBL2440083.
